Values were extracted from paper PMC9482650.

Target: Inadl_6, Q8NI35
Sequence (Q8NI35 1058-1167): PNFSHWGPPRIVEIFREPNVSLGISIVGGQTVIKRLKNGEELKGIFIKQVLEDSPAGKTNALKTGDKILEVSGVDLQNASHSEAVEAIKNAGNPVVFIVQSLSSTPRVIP
Assay: holdup assay
Set-up: key: below the threshold = too weak to quantify, mostly under pKd 3.1 to 4
Conditions: plain residues with an end cap or a label only (N-terminal biotin on a linker: ado-ado)
metric: pKd

{"columns": ["binder", "readout-value"],
 "data": [
  ["EVEEFPETSV [TRPV3, Q8NET8]", 4.18],
  ["EVNETDDTKM [KCNJ1, P48048]", 3.54],
  ["VYPNAKVELV [PDLIM4_iso2, P50479;P50479-1]", "below the threshold"],
  ["LKVPPEERLI [CRB2, Q5IJ48]", "below the threshold"],
  ["IPLDGETEEL [MYOZ1, Q9NP98]", "below the threshold"],
  ["RRLPGKETMA [GRIK2, Q13002]", "below the threshold"],
  ["QMNQTLPVQV [EPHB3, P54753]", "below the threshold"],
  ["TACCHSETVV [TGFA, P01135]", 3.55]
]}
